pIC50: −log10 of the molar value.
// cross-study collection: pIC50 for WRN enzyme (Homo sapiens, UniProt Q14191)
# label = Criterion met if pIC50 >= 8 else Criterion not met

// known answers, use as guide
GIVEN SMILES | LABEL
CCc1c(N2CCN(C(=O)c3ncccc3O)CC2)c(=O)n2nc(-c3cncs3)nc2n1CC(=O)Nc1ccc(C(F)(F)F)cc1Cl | Criterion met
Cc1ncnc(C(=O)N2CCN(c3c4n(c5nc(N6CCOCC6)nn5c3=O)[C@@H](C(=O)Nc3ccc(C(F)(F)F)cc3Cl)C[C@@H]4C)CC2)c1O | Criterion not met
CCc1c(N2CCN(C(=O)c3ncccc3O)CC2)c(=O)n2nc(C3=CCN(C(=O)CCC(=O)N[C@H](C(=O)N4C[C@H](O)C[C@H]4C(=O)N[C@@H](C)c4ccc(-c5scnc5C)cc4)C(C)(C)C)CC3)nc2n1CC(=O)Nc1ccc(C(F)(F)F)cc1C | Criterion not met
CCc1c(N2CCN(C(=O)c3ncnc(C)c3O)CC2)c(=O)n2nc(-c3cc4c(s3)COC4)nc2n1CC(=O)Nc1ccc(C(F)(F)F)c2ccoc12 | Criterion met
Cc1ncnc(C(=O)N2CCN(c3c4n(c5nc(N6CCOCC6)nn5c3=O)[C@@H](C(=O)Nc3ccc(C(F)(F)F)cc3Cl)C[C@H]4C)CC2)c1O | Criterion not met
C[C@@H]1C[C@H](C(=O)Nc2ccc(C(F)(F)F)cc2Cl)n2c1c(N1CCN(C(=O)c3c(O)ccc4nccn34)CC1)c(=O)n1nc(C3=CCOCC3)nc21 | Criterion not met

Please look at the following compound next.
Inquiry: Please tell me: is the compound C[C@H]1C[C@H](C(=O)Nc2ccc(C(F)(F)F)cc2Cl)n2c1c(N1CCN(C(=O)c3nccc(Cl)c3O)CC1)c(=O)n1nc(N3CCOCC3)nc21 at or over 8 in terms of pIC50?
Reply text: Criterion not met
